Values were extracted from patent US4337267A.

# Protocol details: in vivo
# Condition notes: mouse, po
Listing of recorded LD50 at 168 h by entry.

- Compound: "CCOC(=O)C1(CCCCOc2cccc(Cl)c2)CO1 (stereo not shown) [Serial No. 3]"
  LD50 at 168 h [mg/kg]: 390
- Compound: "CCOC(=O)C1(CCCCCCOc2ccc(Cl)cc2)CO1 (stereo not shown) [Serial No. 5]"
  LD50 at 168 h [mg/kg]: 300
- Compound: "CCOC(=O)C1(CCCCOc2cccc(C(F)(F)F)c2)CO1 (stereo not shown) [Serial No. 4]"
  LD50 at 168 h [mg/kg]: 460
- Compound: "CCOC(=O)C1(CCCCCOc2ccc(Cl)cc2)CO1 (stereo not shown) [Serial No. 6]"
  LD50 at 168 h [mg/kg]: 310
